Target: wild-type Androgen Receptor (AR-wt) (Homo sapiens)
Construct: expressed in transfected cells; host or cells: LNCaP (LNCaP AR (cs))
Sequence (P10275 whole entry): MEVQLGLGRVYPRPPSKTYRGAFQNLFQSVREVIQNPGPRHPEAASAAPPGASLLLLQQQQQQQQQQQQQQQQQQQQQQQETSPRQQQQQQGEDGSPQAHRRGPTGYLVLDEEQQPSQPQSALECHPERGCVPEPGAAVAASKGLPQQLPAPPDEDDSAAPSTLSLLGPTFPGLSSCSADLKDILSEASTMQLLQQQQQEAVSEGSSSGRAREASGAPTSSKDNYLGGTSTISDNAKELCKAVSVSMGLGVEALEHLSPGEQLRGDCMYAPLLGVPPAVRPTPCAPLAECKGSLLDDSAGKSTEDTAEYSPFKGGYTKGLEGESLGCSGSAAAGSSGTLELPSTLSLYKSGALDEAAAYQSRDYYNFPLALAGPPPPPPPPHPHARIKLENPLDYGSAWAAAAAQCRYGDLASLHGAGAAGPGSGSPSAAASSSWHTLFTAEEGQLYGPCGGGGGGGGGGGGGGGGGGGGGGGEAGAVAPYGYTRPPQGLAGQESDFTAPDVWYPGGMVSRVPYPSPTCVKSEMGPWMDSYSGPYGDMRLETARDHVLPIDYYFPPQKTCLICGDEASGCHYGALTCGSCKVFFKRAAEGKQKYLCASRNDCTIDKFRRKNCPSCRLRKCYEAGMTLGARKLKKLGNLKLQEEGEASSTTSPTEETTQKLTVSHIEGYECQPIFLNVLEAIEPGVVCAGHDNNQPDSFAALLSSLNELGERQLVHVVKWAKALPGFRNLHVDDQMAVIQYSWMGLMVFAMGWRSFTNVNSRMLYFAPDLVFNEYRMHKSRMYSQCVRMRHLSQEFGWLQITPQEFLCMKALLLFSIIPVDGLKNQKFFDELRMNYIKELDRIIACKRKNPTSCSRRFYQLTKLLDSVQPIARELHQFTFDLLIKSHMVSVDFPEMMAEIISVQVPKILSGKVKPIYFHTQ
Experiment: LNCaP-AR-wt ANT reporter assay (ARE firefly luciferase, antagonist mode)
Assay type: cell-based
Settings: maximum % inhibition of R1881 control response over tested concentration range; read-out: LNCaP-AR-wt ANT MAX % Inh
recorded.endpoint: Emax (%)

>>> observed("N#Cc1ncc(N2C(=O)C3(CCC3)N(c3cccc(F)c3F)C2=S)cc1C(F)(F)F")
101
>>> observed("Cc1cc(N2C(=O)C3(CCC3)N(c3ccc(OC4CCNCC4)cc3)C2=S)cnc1C#N")
98.8
>>> observed("N#Cc1ncc(N2C(=O)C3(CCC3)N(c3ccc(F)cc3)C2=S)cc1C(F)(F)F")
101
>>> observed("CN1CCC(Oc2ccc(N3C(=S)N(c4cnc(C#N)c(C(F)(F)F)c4)C(=O)C34CCC4)c(F)c2)CC1")
101
>>> observed("CN1CCN(CCNC(=O)c2ccc(N3C(=S)N(c4cnc(C#N)c(C(F)(F)F)c4)C(=O)C34CCC4)cc2F)CC1")
93.6
>>> observed("N#Cc1ccc(N2C(=S)N(c3cnc(C#N)c(C(F)(F)F)c3)C(=O)C23CCC3)cc1")
100
>>> observed("N#Cc1ncc(N2C(=O)C3(CCC3)N(c3ccc(OC4CCOCC4)cc3)C2=S)cc1C(F)(F)F")
100
>>> observed("N#Cc1ncc(N2C(=O)C3(CCC3)N(c3ccc(C(=O)NCc4cnccn4)c(F)c3)C2=S)cc1C(F)(F)F")
101
